assay endpoint: melting point

What does the record list as melting point for "Cc1c(SCCN2CCc3ccccc3C2)ccnc1CSc1nc2ncccc2[nH]1" ?
180 °C

Next:
What does the record list as melting point for "CC(C)C(=O)Nc1nsnc1-c1c(Cl)cccc1Cl" ?
112 to 117 °C

What does the record list as melting point for O=C1CCC(c2ccccc2)(c2ccccc2)C2CN(C(Cc3ccccc3)=NCc3cccc(F)c3)CC12 (stereo unspecified) ?
156 °C

What does the record list as melting point for "Brc1ccc2[nH]c(-c3ccccc3)c(CCN3CCCCC3)c2c1" ?
121 to 122 °C

====

// reported melting point for each item listed

What does the record list as melting point for "C#CCCCOc1c(C)cc(C#N)cc1C" ?
48 to 49 °C

What does the record list as melting point for "Cc1cc(C(=O)N2Cc3ccc(C(=O)C(Cl)(Cl)Cl)n3Cc3ccccc32)ccc1I" ?
163 °C

What does the record list as melting point for "CCOC(=O)c1cc(NCc2c(C)cccc2C)c2nc(C)n(C)c2c1" ?
190 °C

What does the record list as melting point for "Cc1nc(-c2ccc(F)cc2)n(-c2ccc(S(C)(=O)=O)cc2)n1" ?
143 to 144 °C

Next:
What does the record list as melting point for CN1CCCC1c1ccc(Nc2cc(-c3cc(F)cc(N4CCc5c(sc6c5CCCC6)C4=O)c3CO)cn(C)c2=O)nc1 (configuration not stated) ?
164 to 166 °C

What does the record list as melting point for "CC(C)n1c(C=O)c(-c2ccc(F)cc2)c(-c2ccccc2)c1C(=O)NCCc1cccnc1" ?
192 to 194 °C

What does the record list as melting point for COC(=O)C(=O)C1C(=O)C(=O)C(CCCCCCC(=O)O)C1=O (configuration not stated) ?
127 to 129 °C

What does the record list as melting point for O=C(O)c1cc(-c2nccs2)[nH]c1C(CC1CCOCC1)c1ccc(S(=O)(=O)C2CC2)cc1 (configuration not stated) ?
153 to 155 °C

What does the record list as melting point for "CC(C)c1cc(C(=O)CI)cc(C(C)C)c1O" ?
127 to 128 °C

What does the record list as melting point for c1ccc(CN2CCCC3(C2)OC(c2ccccc2)(c2ccccc2)c2ccccc23)cc1 (configuration not stated) ?
144 to 146 °C

What does the record list as melting point for "COC(=O)c1ccc(NS(=O)(=O)c2cc(OCC(F)(F)F)cc(OCC(F)(F)F)c2)cn1" ?
158 to 160 °C

What does the record list as melting point for "CC(C)CN/C(=C1/Sc2ccccc2C1=O)c1ccccc1" ?
125 to 126 °C

What does the record list as melting point for "Cc1ccnc(Cl)c1C#N" ?
109 to 110 °C

What does the record list as melting point for "COC(=O)c1ccccc1CSc1c(O)cc(-c2ccccc2)oc1=O" ?
122 to 123 °C

What does the record list as melting point for "CC(=O)N(c1ccccc1)c1ccccc1-c1ccc(I)cc1" ?
135 to 136 °C

What does the record list as melting point for "N#Cc1cc([N+](=O)[O-])c(N)cc1F" ?
197 to 199 °C

What does the record list as melting point for "CCOC(=O)c1nc2n(n1)-c1ccc(Cl)cc1C(c1ccccc1)=NC2" ?
137 to 138 °C

What does the record list as melting point for "CC(C)(C)OC(=O)NC(=N)NC(=O)OC(C)(C)C" ?
144 °C

What does the record list as melting point for "O=C(O)CCC(=O)c1cccc(S(=O)(=O)Cl)c1" ?
73 to 78 °C

What does the record list as melting point for CCOC(=O)C(C)Oc1ccc2c(c1)N(C)C(=O)N(c1ccc(Cl)cc1)S2(=O)=O (configuration not stated) ?
111 to 112 °C
